- assay target: T1, CRF2R; also: reference of the scale not given here
- T1 sequence (Q13324 whole entry, species assumed, looked up): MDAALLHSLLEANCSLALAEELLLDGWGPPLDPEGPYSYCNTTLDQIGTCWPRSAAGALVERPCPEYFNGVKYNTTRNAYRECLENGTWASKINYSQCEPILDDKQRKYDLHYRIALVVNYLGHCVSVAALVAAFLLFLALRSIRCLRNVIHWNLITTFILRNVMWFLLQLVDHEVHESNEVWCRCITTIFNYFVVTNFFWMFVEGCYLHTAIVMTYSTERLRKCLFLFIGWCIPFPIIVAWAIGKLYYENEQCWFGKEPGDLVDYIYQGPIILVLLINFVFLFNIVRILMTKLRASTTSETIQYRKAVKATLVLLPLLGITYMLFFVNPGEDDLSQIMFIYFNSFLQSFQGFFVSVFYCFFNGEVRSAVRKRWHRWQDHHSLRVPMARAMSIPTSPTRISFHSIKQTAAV
- assay text: cell-based or functional assay
Ends that are not written are not given here.
observable: CRF2R Emax % (%)
Respond numerically; units are % and should not be typed.

Below, each entry is followed by its recorded CRF2R Emax % result.
ZGPPISIDLPTWLLRKVIEIEKQEKEKQQAANNARLLARI (C-terminal amide) [SEQ ID NO 291]: 63.8
DNPSLSIDLPYYLLRTLLELARTQSQRERAEQNAIIFASV-NH2 [SEQ ID NO 263]: 93
ZGPPISIDLPQYLLRKMIEIEKQEKEKQQAANNALLLDTI (C-terminal amide) [SEQ ID NO 224]: 100
ZGPPISIDLPQFLLRKMIEIEKQEKEKQQAANNRLLLDTI (C-terminal amide) [SEQ ID NO 221]: 100
ZGPPISIDLPLYLLRKMIEIEKQEKEKQQAANNALLLATI (C-terminal amide) [SEQ ID NO 245]: 93
ZGPPISIDVPYYLLRKVIEIEKQEKEKQQAANNARLLARI (C-terminal amide) [SEQ ID NO 378]: 100
NDDPPISIDLPLYLLRNMIEMARIENEREQAGLNAKYLAEV-NH2 [SEQ ID NO 271]: 69
ZGPPISIDLPFYLLRKMIEIEKQEKEKQQAANNALLLATI (C-terminal amide) [SEQ ID NO 231]: 100
ZGPPISIDLPLELLRKMIEIEKQEKEKQQAANNALLLDTI (C-terminal amide) [SEQ ID NO 235]: 100
ZGPPISIDLPLYLLRKMIEIEKQEKEKQQATTNARLLDTV (C-terminal amide) [SEQ ID NO 242]: 94

[Q] Which CRF2R Emax % is listed for ZGPPISIDVPFQLLRKVIEIEKQEKEKQQAANNARLLDTI (C-terminal amide) [SEQ ID NO 382] ?
[A] 100

[Q] For NDDPPISIDLPFYLLRNMIEMARIENEREQAGLNAKYLAEV-NH2 [SEQ ID NO 261] then?
[A] 95.3
